assay-system: Tumor necrosis factor (Homo sapiens, UniProt P01375)
Sequence (P01375 whole entry): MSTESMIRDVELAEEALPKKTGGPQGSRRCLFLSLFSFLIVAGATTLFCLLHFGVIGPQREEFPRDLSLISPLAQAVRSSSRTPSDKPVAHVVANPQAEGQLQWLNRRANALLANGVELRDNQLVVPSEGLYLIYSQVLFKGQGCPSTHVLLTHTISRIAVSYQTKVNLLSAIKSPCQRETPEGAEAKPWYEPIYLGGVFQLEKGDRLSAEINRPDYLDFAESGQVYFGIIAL
assay-explanation: analog potency on TNFa NF-kB signaling – cell-based, revised, SAR follow-up (AID 2337)
Assay type: functional
The source made the active and inactive calls.
Select the matching outcome among Y for active, N for inactive

Hey, what did the test say about `Nc1nc2ccccc2n1CCOc1ccc(Cl)cc1` ?
N

Hey, what did the test say about `CSc1ccc(NC(=O)c2ccc(CN3CCc4ccccc43)cc2)cc1` ?
N

Hey, what did the test say about `N#Cc1cccc(NC(=O)CSc2nc3scc(-c4ccccc4)c3c(=O)[nH]2)c1` ?
N

Hey, what did the test say about `O=C(COc1ccc2c(-c3ccccc3)cc(=O)oc2c1)Nc1cccnc1` ?
Y

Hey, what did the test say about `Oc1ccc(N=Nc2ccccc2C(F)(F)F)c2cccnc12` ?
Y

Hey, what did the test say about `Cc1ccc(S(=O)(=O)n2c(=S)[nH]c3cc(C)ccc32)cc1` ?
N

---

assay-system: Protein RecA (Mycobacterium tuberculosis)
assay-explanation: Fluorescence Cell-Free Homogeneous Dose Retest to Identify Inhibitors of RecA-Intein Splicing Activity. [Related pubchem assays (depositor defined):AID2097, AID2223, AID489010, AID492950]
Format: functional
Calls of active or inactive are those of the source.
Would you kindly list EC50 for each of these compounds?

Tell me the measured EC50 of `O=C1N=NC2=C1c1c3ccccc3c(O)n1CC2` , please.
7.63 µM (active)

Tell me the measured EC50 of `O=C(NC1=C(Nc2ccc(Cl)cc2)C(=O)c2ccccc2C1=O)c1ccccc1` , please.
6.55 µM (active)

Tell me the measured EC50 of `Cc1n[nH]c(O)c1C(c1ccc(-c2ccccc2C(=O)O)o1)c1c(C)n[nH]c1O` , please.
0.256 µM (active)

Tell me the measured EC50 of `COc1ccccc1-c1cc(C(F)(F)F)nc(S(=O)(=O)CCCC(=O)N2CCOCC2)n1` , please.
4.26 µM (active)

Tell me the measured EC50 of `O=C(O)c1ccc(/C=C(\c2nc3ccccc3[nH]2)c2nc3ccccc3s2)cc1` , please.
21 µM (active)

---

assay-system: Kappa-type opioid receptor (Homo sapiens, UniProt P41145)
Sequence (P41145 whole entry): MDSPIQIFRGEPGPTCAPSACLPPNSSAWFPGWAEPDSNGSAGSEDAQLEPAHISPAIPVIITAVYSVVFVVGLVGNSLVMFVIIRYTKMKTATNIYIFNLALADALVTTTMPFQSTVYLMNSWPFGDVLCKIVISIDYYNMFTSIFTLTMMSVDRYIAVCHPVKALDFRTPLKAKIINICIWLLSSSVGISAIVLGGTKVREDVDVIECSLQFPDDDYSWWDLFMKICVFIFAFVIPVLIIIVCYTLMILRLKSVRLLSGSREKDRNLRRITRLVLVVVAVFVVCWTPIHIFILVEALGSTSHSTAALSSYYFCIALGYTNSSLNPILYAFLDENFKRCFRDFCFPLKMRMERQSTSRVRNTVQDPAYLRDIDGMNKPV
Type: functional
property: IC50

Tell me the measured IC50 of CC(OC(=O)c1cc2c(ccc3ccccc32)oc1=O)c1nc2ccccc2s1 (configuration not stated) , please.
> 32 µM

Tell me the measured IC50 of `O=C(NNC1=Nc2ccccc2SC1)c1ccc(Cl)cc1` , please.
> 32 µM

---

assay-system: Rac GTPase-activating protein 1 (Homo sapiens)
Sequence (Q9H0H5 whole entry): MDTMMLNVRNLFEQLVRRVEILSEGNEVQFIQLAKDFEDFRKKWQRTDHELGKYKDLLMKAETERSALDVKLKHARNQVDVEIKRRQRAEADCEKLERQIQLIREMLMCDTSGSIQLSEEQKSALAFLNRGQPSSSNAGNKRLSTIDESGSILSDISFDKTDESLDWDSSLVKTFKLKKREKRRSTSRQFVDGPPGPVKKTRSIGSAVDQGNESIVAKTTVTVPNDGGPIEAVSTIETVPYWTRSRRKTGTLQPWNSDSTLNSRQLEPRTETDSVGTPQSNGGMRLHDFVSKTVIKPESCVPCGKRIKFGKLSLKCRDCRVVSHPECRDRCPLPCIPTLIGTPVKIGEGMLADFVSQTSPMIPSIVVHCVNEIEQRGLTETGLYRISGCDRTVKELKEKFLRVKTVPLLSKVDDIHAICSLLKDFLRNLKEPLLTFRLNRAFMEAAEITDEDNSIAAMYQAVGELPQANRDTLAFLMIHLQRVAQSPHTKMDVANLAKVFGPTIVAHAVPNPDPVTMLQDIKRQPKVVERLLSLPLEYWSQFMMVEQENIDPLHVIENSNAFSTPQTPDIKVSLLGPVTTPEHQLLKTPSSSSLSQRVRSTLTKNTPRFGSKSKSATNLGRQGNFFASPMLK
assay-explanation: blockers of MgcRacGAP-driven Rac1 GTP hydrolysis – biochemical, ADP Hunter fluorescence, primary and confirmatory, confirmation (AID 624330)
Format: functional
Active and inactive are the calls of the source.
property: IC50

Tell me the measured IC50 of COc1ccc(C2CC(c3ccc4ccccc4c3)=NN2C(=O)CNC2CCCCC2)cc1 (centres undefined) , please.
110 µM (active)

Tell me the measured IC50 of `O=C(O)c1ccc(COc2ccccc2C=C2C(=O)c3ccccc3C2=O)cc1` , please.
85.9 µM (active)

Tell me the measured IC50 of `O=C(CNC1CC1)Nc1cc(C(F)(F)F)ccc1Cl` , please.
123 µM (active)

Tell me the measured IC50 of `CN(C)c1ccc(/C=C/c2cc[n+](C)c3ccccc23)cc1` , please.
38.5 µM (active)

Tell me the measured IC50 of CN(C)CCCN1c2ccc(O)cc2Sc2ccc(Cl)cc21 [7-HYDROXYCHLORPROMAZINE] , please.
11.6 µM (active)

Tell me the measured IC50 of `Sc1nnc(-c2cccnc2)n1/N=C/c1cccs1` , please.
58 µM (active)

Tell me the measured IC50 of `COc1ccc(/C=N/Nc2nc3ccccc3s2)cc1O` , please.
102 µM (active)

Tell me the measured IC50 of `Cc1cc(/C=C2\SC(=S)NC2=O)cc(C)c1O` , please.
25.8 µM (active)

Tell me the measured IC50 of `Cc1ccc(-c2cc(C(=O)N3CCN(c4ccc(O)cc4)CC3)c3ccccc3n2)cc1` , please.
88 µM (active)

Tell me the measured IC50 of `CN(C)/C=N/c1ccc2[nH]c3c4ccccc4nc-3cc2c1` , please.
52.8 µM (active)

Tell me the measured IC50 of `COc1cc(/C(C)=N/N2CCN(c3ccccc3OC)CC2)ccc1O` , please.
208 µM (active)

Tell me the measured IC50 of `Cn1c(=O)[nH]c(=O)c2c1[nH]c(=S)n2Cc1ccc(Cl)cc1` , please.
31.7 µM (active)

Tell me the measured IC50 of `CC1(C)Nc2cccc3cccc(c23)N1` , please.
21.6 µM (active)

Tell me the measured IC50 of `Cc1cccc(N2CCC(/N=C/N(C)C)=N2)c1` , please.
29.2 µM (active)

Tell me the measured IC50 of `COc1cc(OC)c(C(=O)Nc2ccc(N(C)C)cc2)cc1OC` , please.
22.1 µM (active)

Tell me the measured IC50 of CC(C)c1ccc(NC(=O)CNCC(c2ccccc2)N(C)C)cc1 (centres undefined) , please.
109 µM (active)

Tell me the measured IC50 of CC(=O)NC(Cc1ccccc1)C(=O)Oc1ccc2ccccc2c1 (centres undefined) , please.
39.7 µM (active)

Tell me the measured IC50 of `O=C(N/N=C/c1ccc(O)c(O)c1)C1c2ccccc2Oc2ccccc21` , please.
50.6 µM (active)

Tell me the measured IC50 of `Cc1ccc(/C=C2/C(=O)c3ccc(C(=O)O)cc3C2=O)o1` , please.
294 µM (active)

---

assay-system: Prothrombin (Bos taurus, UniProt P00735)
assay-explanation: thrombin protease inhibitors – biochemical, fluorescence polarization, uHTS hits, dose response (AID 602369)
Assay type: functional
Calls of active or inactive are those of the source.
Select the matching outcome among active, inactive

Hey, what did the test say about `N#Cc1ccc(-c2ccc(OCC(=O)NCC(=O)Nc3ccc(F)c(F)c3F)cc2)cc1` ?
inactive

Hey, what did the test say about `O=C(O)c1ccc(COc2ccccc2C=C2C(=O)c3ccccc3C2=O)cc1` ?
inactive

Hey, what did the test say about `CCc1ccc(-c2cc(C(=O)NCc3ccco3)c3ccccc3n2)s1` ?
active

Hey, what did the test say about `COc1cc(/C=C/c2nc(O)c3ccccc3n2)cc(Br)c1O` ?
active

---

Test system: Streptococcus
assay-explanation: GAS UMAA2166 growth inhibition – luminescence, BacTiterGlo, counter-screen for streptokinase expression inhibitor project, dose response (AID 1915);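 further: potency for reduction of bacterial viability or growth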
Assay type: functional, organism-based
Active and inactive are the calls of the source.
Would you kindly list EC50 for each of these compounds?

Tell me the measured EC50 of `Cc1csc(Nc2ccc(Cl)cc2)[n+]1-c1ccc(Cl)cc1` , please.
> 150 µM (not active)

Tell me the measured EC50 of CCCCCNC(=O)c1ccc2c(=O)[nH]c3c(C(=O)NCC4CCCO4)sc(=S)n3c2c1 (stereo unspecified) , please.
> 150 µM (not active)

Tell me the measured EC50 of OC(CNCc1ccco1)Cn1c2ccc(Br)cc2c2cc(Br)ccc21 (stereo unspecified) , please.
13.7 µM (active)

Tell me the measured EC50 of `Cc1cccc(/C=N/NC(=O)c2ccccc2OCc2cccc(Br)c2)n1` , please.
21.5 µM (active)

Tell me the measured EC50 of CCOc1ccc(/C=N/NC(=S)NC2CC3C=CC2C3)cc1 (stereo unspecified) , please.
> 150 µM (not active)

Tell me the measured EC50 of O=C1c2ccccc2C2=Nc3ccccc3SC(c3ccc(Cl)cc3)C12 (stereo unspecified) , please.
4.58 µM (active)

---

assay-explanation: alpha-synuclein stem-loop luciferase translation blockers – H4 neuroglioma cells, luminescence, confirmation (AID 1988)
Type: functional, cell-based
Calls of active or inactive are those of the source.
Would you kindly list EC50 for each of these molecules?

Tell me the measured EC50 of Cc1nnc(N2CCC(C(=O)NC3CCC(C)CC3)CC2)c2nn(-c3ccc(Cl)cc3)c(C)c12 (stereo not given) , please.
> 120 µM (not active)

Tell me the measured EC50 of `CCOC(=O)c1c(C)[nH]c(C)c1S(=O)(=O)N1CCN(c2ccc([N+](=O)[O-])cc2)CC1` , please.
> 120 µM (not active)

Tell me the measured EC50 of `CN(C)CCNc1ncnc2c1sc1nc(N3CCOCC3)c3c(c12)CC(C)(C)SC3` , please.
8.17 µM (active)

Tell me the measured EC50 of `COc1ccc(-c2cc3nc(CCl)nc(O)c3s2)cc1` , please.
11 µM (active)

Tell me the measured EC50 of Cc1ccnc(SCCn2c(N3CC(C)CC(C)C3)nc3c2c(=O)n(C)c(=O)n3C)n1 (stereo not given) , please.
> 120 µM (not active)

---

Would you kindly list AC50 for each of these compounds?
assay-explanation: reduction of Shn3 3'UTR-driven luciferase in osteoblasts – cell-based, Clone20 osteoblasts, firefly luciferase, cherry-picked, dose response (AID 624132);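 further: firefly luciferase luminescence from reporter carrying the Shn3 3'UTR in osteoblasts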
Assay type: functional
Active and inactive are the calls of the source.

Tell me the measured AC50 of `NC(=O)c1cc(N2C(=O)C=CC2=O)ccc1Cl` , please.
11.3 µM (active)

Tell me the measured AC50 of `COc1ccccc1-c1cc(C(F)(F)F)nc(S(=O)(=O)CCCC(=O)N2CCOCC2)n1` , please.
3.02 µM (active)

Tell me the measured AC50 of `COc1cc(C)c(NC(=O)COc2cccc3c2OC(C)(C)C3)cc1OC` , please.
7.06 µM (active)

Tell me the measured AC50 of CC(=O)OC1(C)CC(C)C(=O)C(C(O)CC2CC(=O)NC(=O)C2)C1 (centres undefined) , please.
< 0.26 µM (active)
